- Assay Notes: Selectivity index, ratio of Ki for human alpha3beta4 nAChR in […] cell membrane to Ki for alpha4beta2 nAChR in rat cerebral cortex membrane
- Format: cell-based
Readout Name: Ratio Ki
# respond with the number and nothing more

1. O=C(Nc1ccc(F)cc1)c1cncc(N2CC3CC(C2)N3)c1
8100
2. COc1cccc(NC(=O)c2cncc(N3CC4CC(C3)N4)c2)c1
473
3. COc1cc(NC(=O)c2cncc(N3CC4CC(C3)N4)c2)cc(OC)c1
2030
4. O=C(Nc1ccccc1)c1cncc(N2CC3CC(C2)N3)c1
174
5. O=C(Nc1ccc(I)cc1)c1cncc(N2CC3CC(C2)N3)c1
281
6. O=C(NCc1ccccc1)c1cncc(N2CC3CC(C2)N3)c1
889

// moving on: another record for Ratio Ki
[ask] Param item = "O=C(Nc1ccc(F)cc1F)c1cncc(N2CC3CC(C2)N3)c1" ; retrieve measured Ratio Ki.
[reply] 980

---

The entries below come with measured pKi values attached.
- Assay Target: Neuronal acetylcholine receptor subunit alpha-7 (Rattus norvegicus, UniProt Q05941)
- Sequence (Q05941 whole entry): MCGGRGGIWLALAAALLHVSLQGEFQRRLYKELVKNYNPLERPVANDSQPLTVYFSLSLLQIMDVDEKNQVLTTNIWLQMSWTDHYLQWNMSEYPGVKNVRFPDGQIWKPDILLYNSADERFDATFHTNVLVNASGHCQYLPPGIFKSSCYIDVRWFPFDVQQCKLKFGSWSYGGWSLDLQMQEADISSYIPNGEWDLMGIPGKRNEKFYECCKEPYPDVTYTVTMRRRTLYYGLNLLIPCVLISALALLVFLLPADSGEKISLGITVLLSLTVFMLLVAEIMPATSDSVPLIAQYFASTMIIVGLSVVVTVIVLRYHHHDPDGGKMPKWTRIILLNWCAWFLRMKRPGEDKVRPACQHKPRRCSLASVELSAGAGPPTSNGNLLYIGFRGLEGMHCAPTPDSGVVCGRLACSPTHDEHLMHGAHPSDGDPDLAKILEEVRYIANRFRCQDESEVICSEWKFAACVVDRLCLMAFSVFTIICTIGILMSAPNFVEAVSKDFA
- Assay Notes: Displacement of [125I]alpha-bungarotoxin from alpha7nAChR in rat hippocampus membrane
pKi: −log10 of the molar value.

1) O=C(c1cncc(N2CC3CC(C2)N3)c1)N1CCCc2ccccc21
< 4.30
2) COc1cccc(NC(=O)c2cncc(N3CC4CC(C3)N4)c2)c1
< 4.30

// moving on: another record for pKi
[ask] Param item = "O=C(Nc1ccc(F)cc1F)c1cncc(N2CC3CC(C2)N3)c1" ; retrieve measured pKi.
[reply] < 4.30

---

- Species on record: Rattus norvegicus
- Assay Notes: Selectivity index, ratio of Ki for alpha7 nAChR in rat hippocampus membrane to Ki for alpha4beta2 nAChR in rat cerebral cortex membrane
- Assay type: cell membranes
Each record is given 1 (yes) if its reported Ratio Ki is strictly below 3000. Records at or above 3000 are given 0 (no).

[ask] Lab note: Ratio Ki threshold 3000. Does this compound come in strictly under it? "COc1cccc(NC(=O)c2cncc(N3CC4CC(C3)N4)c2)c1"
[reply] 0 (no)

[ask] Another compound to look at: "O=C(c1cncc(N2CC3CC(C2)N3)c1)N1CCCc2ccccc21"
[reply] 0 (no)

[ask] Another compound to look at: "O=C(NCc1ccccc1)c1cncc(N2CC3CC(C2)N3)c1"
[reply] 1 (yes)

---

- Species: Rattus norvegicus
- Assay Notes: Selectivity index, ratio of Ki for alpha7 nAChR in rat hippocampus membrane to Ki for alpha4beta2 nAChR in rat cerebral cortex membrane
- Assay type: cell membranes
Readout Name: Ratio Ki
# respond with the number and nothing more

[ask] Param item = "O=C(c1cncc(N2CC3CC(C2)N3)c1)N1CCc2ccccc2C1" ; retrieve measured Ratio Ki.
[reply] 32300

[ask] Another molecule to look at: "O=C(Nc1ccc(Cl)cc1)c1cncc(N2CC3CC(C2)N3)c1"
[reply] 32200

[ask] Another molecule to look at: "COc1ccc(NC(=O)c2cncc(N3CC4CC(C3)N4)c2)cc1OC"
[reply] 2780

[ask] Another molecule to look at: "COc1cc(NC(=O)c2cncc(N3CC4CC(C3)N4)c2)cc(OC)c1"
[reply] 43800

[ask] Another molecule to look at: "O=C(Nc1ccccc1)c1cncc(N2CC3CC(C2)N3)c1"
[reply] 2180

Each recorded value in this set is attributed to ChEMBL document CHEMBL4359847.
